target: T1, Human Siglec-9 (human, UniProt Q9Y336 18-463); test: flow cytometry, CHO Siglec-9 cells, mean n = 2
T1 construct: On transfected CHO cells; also on YTS and KHYG-1 transfectants, primary NK cells and moDC; also called huSiglec-9; CD329
T1 sequence (Q9Y336 18-463): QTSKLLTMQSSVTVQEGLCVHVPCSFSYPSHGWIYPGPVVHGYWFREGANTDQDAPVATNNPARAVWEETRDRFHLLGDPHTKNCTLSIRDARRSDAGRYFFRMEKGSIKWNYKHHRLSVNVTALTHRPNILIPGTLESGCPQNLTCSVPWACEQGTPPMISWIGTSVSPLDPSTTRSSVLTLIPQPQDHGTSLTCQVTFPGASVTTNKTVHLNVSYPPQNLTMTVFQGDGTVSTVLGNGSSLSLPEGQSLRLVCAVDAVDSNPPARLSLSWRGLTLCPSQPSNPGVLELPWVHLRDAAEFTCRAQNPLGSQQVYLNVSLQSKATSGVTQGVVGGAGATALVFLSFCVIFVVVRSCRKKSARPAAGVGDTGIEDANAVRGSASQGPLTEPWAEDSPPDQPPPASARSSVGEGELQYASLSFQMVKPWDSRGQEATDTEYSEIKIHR
Result type: EC50 (µg/mL)
// note: answer is a bare numeric in µg/mL

Answered examples (2):
Binder | Test result
mAbA H2L1 (antibody, V domains shown, constant region not specified) VH: QVQLVQSGAEVKKPGSSVKVSCKASYFTFSSYWMHWVRQAPGQGLEWMGEINPSNGHTNYNEKFESRVTITADESTSTAYMELSSLRSEDTAVYYCANGVESYDFDDALDYWGQGTTVTVSS VL: DIQMTQSPSSLSASVGDRVTITCRASQDINNYLNWYQQKPGKAPKLLIYYTSRLHSGVPSRFSGSGSGTDYTFTISSLQPEDIATYYCQQGNTLPFTFGGGTKVEIK | 0.029
mAbA H2L2 (antibody, V domains shown, constant region not specified) VH: QVQLVQSGAEVKKPGSSVKVSCKASYFTFSSYWMHWVRQAPGQGLEWMGEINPSNGHTNYNEKFESRVTITADESTSTAYMELSSLRSEDTAVYYCANGVESYDFDDALDYWGQGTTVTVSS VL: DIQMTQSPSSLSASVGDRVTITCRASQDINNYLNWYQQKPGKAIKLLIYYTSRLHSGVPSRFSGSGSGTDYTFTISSLQPEDIATYYCQQGNTLPFTFGGGTKVEIK | 0.032

We now examine a further binder.
Determine from records and report EC50 for mAbD H2L0 (antibody, V domains shown, constant region not specified) VH: QVQLVQSGSELKKPGASVKVSCKASGYTFTDYSMHWVRQAPGQGLKWMGWIITETGEPTYADDFRGRFVFSLDTSVSTAYLQISSLKAEDTAVYFCARDFDGYWGQGTTVTVSS VL: DIQMTQSPSSLSASVGDRVTITCRASENIYSYLAWYQQKPGKAPKLLIYNAKTLTEGVPSRFSGSGSGTDFTLTISSLQPEDFATYYCQHHYGFPWTFGGGTKVEIK 0.03
